target: ITK (Homo sapiens, UniProt Q08881); test: Inhibition of a panel of kinases, in vitro HotSpot kinase assay: ITK; assay type: biochemical; details: D-compounds panel data; 1 μM ATP
Sequence (Q08881 whole entry): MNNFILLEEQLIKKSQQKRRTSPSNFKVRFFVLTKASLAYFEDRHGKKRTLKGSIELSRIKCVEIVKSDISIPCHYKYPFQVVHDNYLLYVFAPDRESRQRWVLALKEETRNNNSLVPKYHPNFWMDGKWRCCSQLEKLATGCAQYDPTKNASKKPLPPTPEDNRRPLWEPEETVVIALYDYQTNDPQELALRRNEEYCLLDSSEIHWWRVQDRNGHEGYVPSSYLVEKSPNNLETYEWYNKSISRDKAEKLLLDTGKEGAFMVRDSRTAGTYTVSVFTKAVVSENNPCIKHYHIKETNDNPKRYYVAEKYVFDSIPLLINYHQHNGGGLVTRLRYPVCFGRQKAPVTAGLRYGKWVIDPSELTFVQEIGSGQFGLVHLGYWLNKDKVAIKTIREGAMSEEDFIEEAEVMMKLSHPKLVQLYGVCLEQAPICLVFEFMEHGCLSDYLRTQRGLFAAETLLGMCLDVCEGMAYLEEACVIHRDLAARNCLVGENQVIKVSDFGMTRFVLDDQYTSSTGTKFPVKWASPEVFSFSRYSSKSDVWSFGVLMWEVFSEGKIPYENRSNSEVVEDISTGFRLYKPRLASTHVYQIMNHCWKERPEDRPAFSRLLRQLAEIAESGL
pIC50: −log10 of the molar value.
READOUT NAME: pIC50

# COMPOUND, READOUT NAME, TEST RESULT
records = [
    ("C[C@@H]1[C@H](NC(=O)c2ccc3scnc3c2)CCCN1c1cnc(C(N)=O)c(Nc2cnn(C)c2)n1", "pIC50", "6.00 to 7.00"),
    ("NC(=O)c1ncc(N2CCC[C@@H](n3ccc4cc(C5CC5)ccc4c3=O)C2)nc1Nc1ccc2ncccc2c1", "pIC50", "< 5.00"),
    ("C[C@@H]1[C@H](NC(=O)c2ccc(C3CC3)cc2F)CCCN1c1cnc(C(N)=O)c(Nc2ccc(S(=O)(=O)N3CCN(C)CC3)cc2)n1", "pIC50", "6.00 to 7.00"),
    ("C[C@@H]1[C@H](NC(=O)c2ccc(C3CC3)cc2)CCCN1c1cnc(C(N)=O)c(Nc2cc(C3CCOCC3)ns2)n1", "pIC50", "7.00 to 8.00"),
]

get_value(item= C[C@@H]1[C@H](NC(=O)c2ccc(C3CC3)cc2)CCCN1c1cnc(C(N)=O)c(Nc2ccc3c(c2)CCOC3)n1 , readout=pIC50) returns 5.00 to 6.00

get_value(item= CC(=O)N1CCC(c2ccc(Nc3nc(N4CCC[C@@H](NC(=O)c5ccc(C6CC6)cc5)[C@H]4C)cnc3C(N)=O)cc2)CC1 , readout=pIC50) returns 6.00 to 7.00

get_value(item= C[C@@H]1[C@H](NC(=O)c2ccc(C3CC3)cc2F)CCCN1c1cnc(C(N)=O)c(Nc2cc(CN3CCCCC3)ns2)n1 , readout=pIC50) returns 6.00 to 7.00

* * *

target: UniProt Q08881; assay: Inhibition of a panel of kinases, in vitro HotSpot kinase assay: ITK; type: biochemical; conditions: E compounds, Table 17
READOUT NAME: IC50

Known IC50 results, listed for orientation:
# SMILES REPRESENTATION, IC50
rows = [
    ("C=CC(=O)N1CCC[C@H](Nc2nnc(C(N)=O)c(Nc3ccc(-c4ncco4)cc3)n2)C1", "0.01 to 0.1 µM"),
    ("C=CC(=O)N1CCC[C@@H](Nc2nnc(C(N)=O)c(Nc3cncc(F)c3)n2)C1", "0.1 to 1 µM"),
    ("C=CC(=O)N1CC[C@@H](N(C)c2cnc(C(N)=O)c(Nc3ccc(-c4ncco4)cc3)n2)C1", "≤ 0.01 µM"),
]

get_value(item= C[C@@H]1[C@H](NC(=O)c2noc(C(C)(C)C)n2)CCCN1c1cnc(C(N)=O)c(Nc2cnn(C)c2)n1 , readout=IC50) returns 1 to 10 µM

get_value(item= C=CC(=O)N1CCC[C@@H](Nc2nnc(C(N)=O)c(Nc3cc(C)ns3)n2)C1 , readout=IC50) returns ≤ 0.01 µM

get_value(item= C=CC(=O)N1CC[C@@H](N(C)c2cnc(C(N)=O)c(Nc3ccc(C4CCN(C5CC5)CC4)cc3)n2)C1 , readout=IC50) returns ≤ 0.01 µM

get_value(item= C=CC(=O)N1CCC[C@@H](N(C)c2cnc(C(N)=O)c(Nc3ccc(C4(C)CCN(C5CCCC5)CC4)cc3)n2)C1 , readout=IC50) returns ≤ 0.01 µM

* * *

target: BTK-WT (Homo sapiens, UniProt Q06187); construct: purified from insect cells as a full-length construct containing an N-terminal 6X-His tag; His6 (N); made in house; host or cells: insect cells (baculovirus Sf21 in Method B); assay: Btk in vitro inhibitory activity (one of Method A TR-FRET, Method B electrophoretic mobility shift, Method C radiometric filter binding); assay type: biochemical; conditions: D-compounds panel data; read-out: IC50 BTK-WT
Sequence (Q06187 whole entry): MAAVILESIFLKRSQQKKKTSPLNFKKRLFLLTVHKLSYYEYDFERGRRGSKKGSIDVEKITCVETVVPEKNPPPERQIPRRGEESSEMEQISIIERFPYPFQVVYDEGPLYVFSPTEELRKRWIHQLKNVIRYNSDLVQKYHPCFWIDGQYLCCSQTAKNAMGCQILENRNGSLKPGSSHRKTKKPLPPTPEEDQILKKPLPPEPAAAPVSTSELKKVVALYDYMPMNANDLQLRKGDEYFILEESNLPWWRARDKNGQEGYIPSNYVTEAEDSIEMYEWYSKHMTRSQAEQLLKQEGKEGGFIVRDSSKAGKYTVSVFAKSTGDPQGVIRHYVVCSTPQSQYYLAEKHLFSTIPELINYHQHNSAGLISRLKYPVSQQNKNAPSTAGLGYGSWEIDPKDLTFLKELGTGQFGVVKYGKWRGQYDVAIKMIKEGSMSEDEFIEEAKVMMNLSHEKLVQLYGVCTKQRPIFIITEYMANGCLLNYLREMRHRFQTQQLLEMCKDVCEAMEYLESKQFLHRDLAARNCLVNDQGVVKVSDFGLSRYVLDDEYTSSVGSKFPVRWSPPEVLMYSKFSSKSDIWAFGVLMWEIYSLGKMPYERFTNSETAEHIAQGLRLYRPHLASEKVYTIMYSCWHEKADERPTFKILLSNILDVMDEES
READOUT NAME: IC50

Known IC50 results, listed for orientation:
# SMILES REPRESENTATION, TARGET, READOUT NAME, TEST RESULT
measured = [
    ("C[C@@H]1[C@H](NC(=O)c2ccc(C3(C)COC3)cc2)CCCN1c1cnc(C(N)=O)c(Nc2cnn(C)c2)n1", "BTK-WT (Homo sapiens, UniProt Q06187)", "IC50", "≤ 10 nM"),
    ("Cc1ccc(C(=O)N[C@@H]2CCCN(c3cnc(C(N)=O)c(Nc4cnn(C)c4)n3)[C@@H]2C)cc1", "BTK-WT (Homo sapiens, UniProt Q06187)", "IC50", "≤ 10 nM"),
    ("CN(C)C(=O)N[C@H]1CCCN(c2cnc(C(N)=O)c(Nc3ccc(C4(C)CCN(C5CCCC5)CC4)cc3)n2)[C@@H]1CO", "BTK-WT (Homo sapiens, UniProt Q06187)", "IC50", "100 to 1000 nM"),
    ("Cn1cc(Nc2nc(N3CCC[C@H]4[C@@H]3CCCN4C(=O)c3ccc(C4CC4)cc3)cnc2C(N)=O)cn1", "BTK-WT (Homo sapiens, UniProt Q06187)", "IC50", "1000 to 10000 nM"),
    ("C[C@@H]1[C@H](NC(=O)C23CC(C2)C3)CCCN1c1cnc(C(N)=O)c(Nc2cnn(C)c2)n1", "BTK-WT (Homo sapiens, UniProt Q06187)", "IC50", "10 to 100 nM"),
    ("Cc1c(Nc2nc(N3CCC[C@@H](NC(=O)c4ccc(C5CC5)cc4)[C@H]3C)cnc2C(N)=O)cnn1C", "BTK-WT (Homo sapiens, UniProt Q06187)", "IC50", "10 to 100 nM"),
]

Could you now consider this next molecule?
For the molecule C[C@@H]1[C@H](NC(=O)c2ccc(C3CC3)cc2F)CCCN1c1cnc(C(N)=O)c(Nc2nc3c(s2)CN(C)CC3)n1 , the measured IC50 on BTK-WT (Homo sapiens, UniProt Q06187) was 100 to 1000 nM

* * *

biological target: LCK (Homo sapiens, UniProt P06239); assay: Inhibition of a panel of kinases, in vitro HotSpot kinase assay: LCK; type: biochemical; details: Table 15, C compounds; 1 μM ATP; read-out: IC50 LCK
Sequence (P06239 whole entry): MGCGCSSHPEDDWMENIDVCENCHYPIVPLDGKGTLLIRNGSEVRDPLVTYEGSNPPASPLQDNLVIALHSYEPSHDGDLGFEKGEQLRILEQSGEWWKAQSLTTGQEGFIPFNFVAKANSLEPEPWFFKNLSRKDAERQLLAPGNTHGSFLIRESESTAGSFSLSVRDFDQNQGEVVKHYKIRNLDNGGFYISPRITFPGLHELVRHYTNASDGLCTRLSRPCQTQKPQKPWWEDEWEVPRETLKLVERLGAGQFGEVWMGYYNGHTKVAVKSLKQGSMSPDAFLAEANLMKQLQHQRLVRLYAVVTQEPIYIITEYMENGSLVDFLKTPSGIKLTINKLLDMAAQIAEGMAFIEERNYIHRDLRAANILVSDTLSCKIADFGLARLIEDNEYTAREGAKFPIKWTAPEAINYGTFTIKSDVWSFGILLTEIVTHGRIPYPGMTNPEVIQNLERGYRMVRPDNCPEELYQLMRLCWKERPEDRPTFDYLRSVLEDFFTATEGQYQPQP
// reported IC50 for each item listed

Known IC50 results, listed for orientation:
# COMPOUND, TARGET, IC50
measured = [
    ("C=CC(=O)N1CCC[C@@H](N(C)c2cnc(C(N)=O)c(Nc3ccc(C4(C)CCN(C5CCCC5)CC4)cc3)n2)C1 [Example C-44]", "LCK (Homo sapiens, UniProt P06239)", "< 10 nM"),
    ("C=CC(=O)N1CCC[C@@H](N(C)c2cnc(C(N)=O)c(Nc3ccc(C(C)C)cc3)n2)C1 [Example C-42]", "LCK (Homo sapiens, UniProt P06239)", "1000 to 10000 nM"),
    ("C=CC(=O)N1CCC[C@@H](Nc2nnc(C(N)=O)c(Nc3ccc(C(C)(C)C)cc3)n2)C1 [Example C-40]", "LCK (Homo sapiens, UniProt P06239)", "100 to 1000 nM"),
]

get_value(item= C=CC(=O)N1CCC[C@@H](Nc2cnc(C(N)=O)c(Nc3ccc(C4CCN(C5CCCC5)CC4)cc3)n2)C1 [Example C-84] , readout=IC50) returns 10 to 100 nM

get_value(item= C=CC(=O)N1CC[C@@H](N(C)c2nnc(C(N)=O)c(Nc3ccc(C(C)C)cc3)n2)C1 [Example C-41] , readout=IC50) returns 1000 to 10000 nM

get_value(item= C=CC(=O)N1CCC[C@@H](Nc2nnc(C(N)=O)c(Nc3ccc(C4CCN(C(=O)CC)CC4)cc3)n2)C1 [Example C-57] , readout=IC50) returns 10 to 100 nM

get_value(item= C=CC(=O)N1CCC[C@@H](Nc2nnc(C(N)=O)c(Nc3cc(C)ns3)n2)C1 [Example C-56] , readout=IC50) returns 10 to 100 nM

get_value(item= C=CC(=O)N1CC[C@@H](N(C)c2cnc(C(N)=O)c(Nc3ccc(C4CCN(C5CCCC5)CC4)cc3)n2)C1 [Example C-85] , readout=IC50) returns 100 to 1000 nM

* * *

target: TEC (Homo sapiens); assay: Inhibition of a panel of kinases, in vitro HotSpot kinase assay: TEC; format: biochemical; settings: D-compounds panel data; 1 μM ATP
Sequence (P42680 whole entry): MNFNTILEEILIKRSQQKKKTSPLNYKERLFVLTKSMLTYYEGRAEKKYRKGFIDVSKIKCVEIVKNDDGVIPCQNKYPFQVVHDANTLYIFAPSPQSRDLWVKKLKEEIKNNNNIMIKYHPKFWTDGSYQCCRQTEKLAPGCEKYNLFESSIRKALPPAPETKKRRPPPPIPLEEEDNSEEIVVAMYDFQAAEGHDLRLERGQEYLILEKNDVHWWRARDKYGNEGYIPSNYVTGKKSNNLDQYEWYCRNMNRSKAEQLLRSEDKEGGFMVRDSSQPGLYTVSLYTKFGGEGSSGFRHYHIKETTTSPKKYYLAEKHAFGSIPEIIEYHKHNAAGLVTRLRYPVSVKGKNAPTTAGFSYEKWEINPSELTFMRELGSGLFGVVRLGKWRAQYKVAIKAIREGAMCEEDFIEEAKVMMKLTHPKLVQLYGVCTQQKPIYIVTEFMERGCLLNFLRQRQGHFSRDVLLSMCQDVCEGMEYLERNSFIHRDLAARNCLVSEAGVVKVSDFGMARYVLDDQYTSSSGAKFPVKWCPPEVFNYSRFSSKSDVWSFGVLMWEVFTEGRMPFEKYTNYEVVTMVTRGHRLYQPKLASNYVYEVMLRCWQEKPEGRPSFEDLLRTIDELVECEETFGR
READOUT NAME: IC50

# COMPOUND, TEST RESULT
measured = [
    ("C[C@@H]1[C@H](NC(=O)c2ccc(C(C)(C)C)cc2)CCCN1c1cnc(C(N)=O)c(Nc2cnn(C)c2)n1", "10 to 100 nM"),
]

get_value(item= Cc1cc(Nc2nc(N3CCC[C@@H](n4ccc5cc(C6CC6)ccc5c4=O)C3)cnc2C(N)=O)sn1 , readout=IC50) returns > 10000 nM

get_value(item= CN1CCN(c2ccc(Nc3cc(N4CCC[C@@H](n5ccc6cc(C7CC7)ccc6c5=O)C4)cnc3C(N)=O)cc2)CC1 , readout=IC50) returns 1000 to 10000 nM

get_value(item= C[C@@H]1[C@H](NC(=O)c2ccc(C3CC3)nc2)CCCN1c1cnc(C(N)=O)c(Nc2ccc(N3CCC(F)(F)CC3)cc2)n1 , readout=IC50) returns 10 to 100 nM

get_value(item= CN(C)C(=O)N[C@@H]1CCCN(c2cnc(C(N)=O)c(Nc3ccc(C4(C)CCN(C5CCCC5)CC4)cc3)n2)[C@@H]1CO , readout=IC50) returns 100 to 1000 nM

get_value(item= C[C@@H]1[C@H](NC(=O)c2ccc(C3CC3)cc2)CCCN1c1cnc(C(N)=O)c(Nc2ccc(N3CCC(C(C)(C)O)CC3)cc2)n1 , readout=IC50) returns ≤ 10 nM

get_value(item= Cc1cc(Nc2nc(N3CCC[C@@H](NC(=O)N(C)C)[C@H]3CO)cnc2C(N)=O)sn1 , readout=IC50) returns 100 to 1000 nM

get_value(item= C[C@@H]1[C@H](NC(=O)c2cc3n(n2)CCC3)CCCN1c1cnc(C(N)=O)c(Nc2cnn(C)c2)n1 , readout=IC50) returns ≤ 10 nM

get_value(item= C[C@@H]1[C@H](NC(=O)c2ccc(C3CC3)cc2)CCCN1c1cnc(C(N)=O)c(NCC2=CCN(C)CC2)n1 , readout=IC50) returns > 10000 nM

get_value(item= Cc1ccc(-c2cnc([C@@H]3CCCN(c4cnc(C(N)=O)c(Nc5cc(C)ns5)n4)[C@@H]3C)[nH]2)cc1 , readout=IC50) returns 100 to 1000 nM

get_value(item= CC(C)n1cc(Nc2nc(N3CCC[C@@H](NC(=O)c4ccc(C5CC5)cc4F)[C@H]3C)cnc2C(N)=O)cn1 , readout=IC50) returns 10 to 100 nM

get_value(item= C[C@@H]1CC[C@H](NC(=O)c2ccc(C3CC3)cc2)CN1c1cnc(C(N)=O)c(Nc2ccc(N3CCN(C)CC3)cc2)n1 , readout=IC50) returns ≤ 10 nM

get_value(item= Cc1ccc(-c2cnc([C@H]3CCCN(c4cnc(C(N)=O)c(Nc5cc(C)ns5)n4)C3)[nH]2)cc1 , readout=IC50) returns 100 to 1000 nM

get_value(item= C[C@H]1CC[C@@H](NC(=O)c2ccc(C(C)(C)O)cc2)CN1c1cnc(C(N)=O)c(Nc2cnn(C)c2)n1 , readout=IC50) returns ≤ 10 nM

get_value(item= C[C@@H]1[C@H](NC(=O)c2ccc(C3CC3)cc2F)CCCN1c1cnc(C(N)=O)c(Nc2ccc(CN3CCN(C)CC3)cc2)c1 , readout=IC50) returns 1000 to 10000 nM

get_value(item= C[C@@H]1[C@H](NC(=O)c2ccc(C(O)C(F)(F)F)cc2)CCCN1c1cnc(C(N)=O)c(Nc2cnn(C)c2)n1 (single isomer, unassigned) [Example D-249] , readout=IC50) returns ≤ 10 nM

get_value(item= C[C@@H]1[C@H](NC(=O)c2ccc(C3CC3)cc2F)CCCN1c1cnc(C(N)=O)c(Nc2ccc3ncccc3c2)n1 , readout=IC50) returns 10 to 100 nM

get_value(item= C[C@@H]1[C@H](NC(=O)c2ccc(C3CC3)cc2)CCCN1c1cnc(C(N)=O)c(Nc2cn(C)nc2C(F)(F)F)n1 , readout=IC50) returns > 10000 nM

get_value(item= C[C@@H]1[C@H](NC(=O)c2ccc(C3CC3)cc2)CCCN1c1cnc(C(N)=O)c(Nc2ccc3c(c2)OC(F)(F)O3)n1 , readout=IC50) returns 1000 to 10000 nM

get_value(item= C[C@@H]1[C@H](NC(=O)c2ccc(C3CC3)cc2F)CCCN1c1cnc(C(N)=O)c(Nc2ccc(N3CCN(C)CC3)cn2)n1 , readout=IC50) returns 1000 to 10000 nM

get_value(item= C[C@@H]1[C@H](NC(=O)c2cc(C(C)(C)C)on2)CCCN1c1cnc(C(N)=O)c(Nc2cnn(C)c2)n1 , readout=IC50) returns 10 to 100 nM

get_value(item= CN(C)c1ccc2c(c1)CCN([C@@H]1CCCN(c3cnc(C(N)=O)c(Nc4cnn(C)c4)n3)C1)C2=O , readout=IC50) returns 10 to 100 nM

get_value(item= NC(=O)c1ncc(N2CCC[C@@H](NC(=O)c3ccc(C4CC4)cc3F)C2)nc1Nc1cc(-c2ccccc2)ns1 , readout=IC50) returns > 10000 nM

get_value(item= C[C@@H]1[C@H](NC(=O)c2ccc(S(F)(F)(F)(F)F)cc2)CCCN1c1cnc(C(N)=O)c(Nc2cnn(C)c2)n1 , readout=IC50) returns 10 to 100 nM

get_value(item= C[C@@H]1[C@H](NC(=O)c2ccc3ncsc3c2)CCCN1c1cnc(C(N)=O)c(Nc2cnn(C)c2)n1 , readout=IC50) returns ≤ 10 nM

get_value(item= C[C@@H]1[C@H](NC(=O)c2ccc(C(C)(C)C)cc2)CCCN1c1nnc(C(N)=O)c(Nc2cnn(C)c2)n1 , readout=IC50) returns ≤ 10 nM
